# SYSTEM UNDER TEST: HsERK8 (Homo sapiens, UniProt Q8TD08)
# Construct: plasmid pGEX2T expressing the full-length hERK8 coding region; made in house; host or cells: Escherichia coli Rosetta 2 (DE3)
# Sequence (Q8TD08 whole entry): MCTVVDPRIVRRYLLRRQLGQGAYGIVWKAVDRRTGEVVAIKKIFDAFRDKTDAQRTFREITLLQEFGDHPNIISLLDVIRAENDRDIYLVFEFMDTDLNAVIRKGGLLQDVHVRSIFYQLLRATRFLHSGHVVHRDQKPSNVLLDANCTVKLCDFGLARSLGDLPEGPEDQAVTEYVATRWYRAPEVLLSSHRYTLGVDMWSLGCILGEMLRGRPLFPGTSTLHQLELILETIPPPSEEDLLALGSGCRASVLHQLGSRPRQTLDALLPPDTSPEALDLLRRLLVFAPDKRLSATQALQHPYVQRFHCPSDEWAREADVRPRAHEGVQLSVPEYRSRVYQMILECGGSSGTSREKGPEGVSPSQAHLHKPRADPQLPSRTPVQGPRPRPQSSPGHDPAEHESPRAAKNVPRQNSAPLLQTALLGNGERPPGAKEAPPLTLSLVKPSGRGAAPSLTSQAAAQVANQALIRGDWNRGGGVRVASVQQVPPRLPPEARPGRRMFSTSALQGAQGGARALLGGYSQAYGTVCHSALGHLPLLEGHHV
# ASSAY OVERVIEW: Luciferase-based kinase inhibition assay (ATP luminescence), GST-tagged HsERK8 with MBP substrate
# Assay type: biochemical
RECORDED ENDPOINT: pIC50
Quick note: pIC50 means taking -log10 of the concentration in moles per liter.

State pIC50 (HsERK8 (Homo sapiens, UniProt Q8TD08)) of `C[C@]12C=CC(=O)C=C1CC[C@@H]1[C@@H]2[C@@H](O)C[C@@]2(C)[C@H]1CC[C@]2(O)C(=O)CO` .
3.52

----------
# SYSTEM UNDER TEST: HsERK8 (Homo sapiens)
# Construct: plasmid pGEX2T expressing the full-length hERK8 coding region; made in house; host or cells: Escherichia coli Rosetta 2 (DE3)
# ASSAY OVERVIEW: Luciferase-based kinase inhibition assay (ATP luminescence), GST-tagged HsERK8 with MBP substrate
# Assay type: biochemical
# PROTOCOL CONDITIONS: 50 μM ATP, 30 min 30°C, triplicate; n/d = no detectible inhibition; read-out: HsERK8 IC50
RECORDED ENDPOINT: IC50 (mM)
Write the answer as a number in mM, unit excluded.

Determine its reported IC50: `CCCc1nn(C)c2c(=O)[nH]c(-c3cc(S(=O)(=O)N4CCN(C)CC4)ccc3OCC)nc12`
8

All figures here come from paper PMC12445744.
